B1: ZNF8 (parent)
chain: RIHTGERPYMCKECGKAFSQNSSL

Variants of: B1
Assay: protein stability index of a GFP-peptide fusion (GPS, HEK-293T) (PSI 1-6); higher = more stable;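 further: lentivirally expressed fusions sorted by FACS into six bins by GFP to DsRed ratio, PSI derived from sequencing read proportions per bin multiplied by bin number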
Settings: c terminus: a fixed tail appended
Here, each record is paired with measured protein stability index data.

>>> result("S22M")
2.22
>>> result("L24V")
2.6
>>> result("R7N")
3.38
>>> result("C14W")
2.12
>>> result("K12N")
2.66
>>> result("F18D")
3.84
>>> result("Q20P")
2.74
>>> result("H3F")
1.9

Name the reported protein stability index value associated with the variant `P8R`
2.85

And for `C14L` ?
2.42

Now consider `I2A` .
2.41

The reported measurements were obtained from the supplement of paper PMC10567573.
